Target: ATP-binding cassette transporter A1 (ABCA1) (UniProt P41233 1-2261, limits assumed)
Sequence (P41233 whole entry): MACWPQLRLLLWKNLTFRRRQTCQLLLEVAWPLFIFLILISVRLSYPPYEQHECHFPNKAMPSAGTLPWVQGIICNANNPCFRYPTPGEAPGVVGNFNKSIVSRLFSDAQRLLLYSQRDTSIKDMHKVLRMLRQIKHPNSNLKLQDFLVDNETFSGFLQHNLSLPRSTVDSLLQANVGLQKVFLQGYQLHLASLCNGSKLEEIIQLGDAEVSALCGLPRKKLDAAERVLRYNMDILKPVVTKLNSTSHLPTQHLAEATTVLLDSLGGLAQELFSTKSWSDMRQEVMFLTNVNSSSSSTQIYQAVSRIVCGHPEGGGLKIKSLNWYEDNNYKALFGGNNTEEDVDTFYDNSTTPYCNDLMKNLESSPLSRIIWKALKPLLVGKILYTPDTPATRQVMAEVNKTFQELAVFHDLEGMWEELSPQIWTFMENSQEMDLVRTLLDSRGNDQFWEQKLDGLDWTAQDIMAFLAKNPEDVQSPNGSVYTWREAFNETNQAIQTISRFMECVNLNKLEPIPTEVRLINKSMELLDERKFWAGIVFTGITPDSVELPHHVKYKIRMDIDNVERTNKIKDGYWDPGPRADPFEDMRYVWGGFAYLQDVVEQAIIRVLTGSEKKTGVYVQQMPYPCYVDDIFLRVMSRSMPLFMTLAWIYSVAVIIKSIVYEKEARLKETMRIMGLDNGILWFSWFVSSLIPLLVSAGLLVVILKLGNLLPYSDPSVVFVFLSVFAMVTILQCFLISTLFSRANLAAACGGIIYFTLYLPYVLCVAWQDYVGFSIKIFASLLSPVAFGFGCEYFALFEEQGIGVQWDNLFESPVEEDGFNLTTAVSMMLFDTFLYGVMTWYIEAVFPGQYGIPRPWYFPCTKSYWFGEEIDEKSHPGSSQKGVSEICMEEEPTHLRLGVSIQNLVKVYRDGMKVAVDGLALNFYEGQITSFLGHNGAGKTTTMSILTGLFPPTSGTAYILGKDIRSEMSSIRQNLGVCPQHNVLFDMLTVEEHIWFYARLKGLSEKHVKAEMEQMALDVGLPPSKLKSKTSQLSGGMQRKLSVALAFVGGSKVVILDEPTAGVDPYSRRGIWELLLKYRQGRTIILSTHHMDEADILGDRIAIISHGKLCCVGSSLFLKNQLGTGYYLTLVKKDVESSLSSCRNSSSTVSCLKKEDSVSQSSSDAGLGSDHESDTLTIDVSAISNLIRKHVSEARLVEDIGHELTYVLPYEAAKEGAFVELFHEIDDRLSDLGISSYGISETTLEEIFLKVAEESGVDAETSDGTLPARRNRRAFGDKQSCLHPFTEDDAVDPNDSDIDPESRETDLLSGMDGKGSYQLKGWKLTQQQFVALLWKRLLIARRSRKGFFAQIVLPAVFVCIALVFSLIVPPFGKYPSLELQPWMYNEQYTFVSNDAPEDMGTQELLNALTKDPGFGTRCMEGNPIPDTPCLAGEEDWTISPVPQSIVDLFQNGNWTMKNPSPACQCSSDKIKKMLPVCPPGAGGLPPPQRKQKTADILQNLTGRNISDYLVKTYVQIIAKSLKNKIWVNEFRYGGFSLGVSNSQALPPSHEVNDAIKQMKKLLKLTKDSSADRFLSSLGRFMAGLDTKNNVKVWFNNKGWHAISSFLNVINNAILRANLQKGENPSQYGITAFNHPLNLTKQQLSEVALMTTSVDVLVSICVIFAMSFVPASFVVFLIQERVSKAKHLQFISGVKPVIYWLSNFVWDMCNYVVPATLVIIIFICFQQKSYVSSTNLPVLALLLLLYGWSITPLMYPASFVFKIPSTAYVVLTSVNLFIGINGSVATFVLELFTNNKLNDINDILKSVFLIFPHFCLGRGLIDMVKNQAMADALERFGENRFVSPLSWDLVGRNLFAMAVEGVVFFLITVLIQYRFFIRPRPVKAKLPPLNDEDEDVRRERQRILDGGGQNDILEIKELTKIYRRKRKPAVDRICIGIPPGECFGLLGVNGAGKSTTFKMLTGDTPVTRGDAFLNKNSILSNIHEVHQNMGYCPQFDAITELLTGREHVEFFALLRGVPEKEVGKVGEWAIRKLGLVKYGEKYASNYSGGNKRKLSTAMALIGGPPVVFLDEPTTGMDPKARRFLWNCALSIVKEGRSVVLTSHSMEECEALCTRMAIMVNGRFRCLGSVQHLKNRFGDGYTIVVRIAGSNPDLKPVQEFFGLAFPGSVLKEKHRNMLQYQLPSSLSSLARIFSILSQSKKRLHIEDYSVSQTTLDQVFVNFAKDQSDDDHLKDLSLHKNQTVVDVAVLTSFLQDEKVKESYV
Experiment: cell-based or functional assay
Here the recorded % cholesterol efflux/4 hours at 10 µg/ml is given for each entry.
I only need the number, in %, no unit after it.

A selection of reference data follows.
| BINDER | % cholesterol efflux/4 hours at 10 µg/ml, % |
| --- | --- |
| EVREKLEAWFEAFREFAERFKS [N965-1] | 2.9 |
| EVREKLEAWFELFREFLERFKS [N965-4] | 4 |
| EVREKLEAWFELFREFLERFL [N965-6] | 2.22 |
| ELREKLEAWFELFREFLERF [SEQ ID NO:2 peptide] | 3.62 |
| EVREKLEAWFELFREFAERFLS [N965-3] | 3.05 |

From here, focus on the item given below.
Query string: Please indicate % cholesterol efflux/4 hours at 10 µg/ml recorded for EVREKLEAWFELFREFLERFLS [N965-5]
Result string: 4.06
